Read-out: ATP-citrate lyase (ACLY), ACLY (gene 47)
ASSAY_NAME: LTEA_HepaRG_ACLY: Life Technologies and Expression Analysis (LTEA) Assay for ATP-citrate lyase (ACLY) using HepaRG (AID 2283466)
EXPERIMENTAL_PARAMETERS: mRNA level, 48 h; actives raise or lower the signal
Active and inactive are the calls of the source. The calls were made as follows: active = hit-call score of the fitted dose curve at least 0.9, where 1 is the maximum; inactive = score below 0.9.
Respond using exactly one of the listed classes: yes (1) for active, no (0) for inactive

Observe how each entry below is paired with its result.
compound=CC(C)COC(=O)CCCCC(=O)OCC(C)C assigned_label="no (0)"
compound=CN(C)C(=O)NC1(c2ccccc2)CCN(CC[C@@]2(c3ccc(F)c(F)c3)CN(C(=O)c3ccccc3)CCO2)CC1 assigned_label="yes (1)"
compound=Cc1cn([C@H]2C=C[C@@H](CO)O2)c(=O)[nH]c1=O assigned_label="no (0)"
compound=C=CCc1ccc(OC)c(OC)c1 assigned_label="no (0)"
compound=C=CCCCCCCCCCCCC assigned_label="no (0)"
compound=COc1ccc(C(=O)Nc2nc3ccccc3c(NCc3ccccc3)c2C#N)cc1 assigned_label="yes (1)"
compound=O=C1OC(c2ccc(O)cc2)(c2ccc(O)cc2)c2ccccc21 assigned_label="no (0)"
compound=CCc1cc(C2=C(C(=O)O)N(c3ccccc3C(F)(F)F)S(=O)(=O)c3ccccc32)cc2c1OCO2 assigned_label="yes (1)"
compound=CCc1nc(N)nc(N)c1-c1ccc(Cl)cc1 assigned_label="yes (1)"
compound=Nc1nc(Cl)nc2c1ncn2[C@H]1C[C@H](O)[C@@H](CO)O1 assigned_label="no (0)"

Query block: Please share the test call associated with `S=c1[nH]c2ccccc2s1` .
Result block: no (0)

Query block: Please share the test call associated with CCCCC(CC)CO (stereo not given) .
Result block: no (0)

Query block: Please share the test call associated with `CCCCc1nc2cccnc2n1Cc1ccc(-c2ccccc2-c2nnn[nH]2)cc1` .
Result block: no (0)

Query block: Please share the test call associated with CC(=O)CC(c1ccccc1)c1c(O)c2ccccc2oc1=O (stereo not given) .
Result block: yes (1)

Query block: Please share the test call associated with `COc1ccc(OC(F)(F)F)cc1CN[C@H]1CCCN[C@H]1c1ccccc1` .
Result block: yes (1)

Query block: Please share the test call associated with `N[C@@H](Cc1c[nH]c2ccccc12)C(=O)O` .
Result block: no (0)

* * *

Read-out: Protein phosphatase 2A (PPP2R4), PTPA (gene 5524)
ASSAY_NAME: LTEA_HepaRG_PPP2R4: Life Technologies and Expression Analysis (LTEA) Assay for Protein phosphatase 2A (PPP2R4) using HepaRG (AID 2283522)
EXPERIMENTAL_PARAMETERS: mRNA level, 48 h; actives raise or lower the signal
The source made the active and inactive calls. Rule for the calls: active = hit-call score of the fitted dose curve at least 0.9, where 1 is the maximum; inactive = score below 0.9.
Respond using exactly one of the listed classes: 1 (active), 0 (inactive)

Observe how each entry below is paired with its result.
compound=CCCCCCCCCC[N+](C)(C)[O-] assigned_label=0
compound=CC1=C(C)S(=O)(=O)CCS1(=O)=O assigned_label=1
compound=CC(C)c1cccc(C(C)C)c1NC(=O)NS(=O)(=O)c1cc(C(C)(C)O)co1 assigned_label=0

Next item in the queue.
Query block: Please share the test call associated with `NC1CCCCC1` .
Result block: 0

* * *

Read-out: Fatty acid synthase (Homo sapiens) (UniProt P49327)
Sequence (P49327 whole entry, looked up): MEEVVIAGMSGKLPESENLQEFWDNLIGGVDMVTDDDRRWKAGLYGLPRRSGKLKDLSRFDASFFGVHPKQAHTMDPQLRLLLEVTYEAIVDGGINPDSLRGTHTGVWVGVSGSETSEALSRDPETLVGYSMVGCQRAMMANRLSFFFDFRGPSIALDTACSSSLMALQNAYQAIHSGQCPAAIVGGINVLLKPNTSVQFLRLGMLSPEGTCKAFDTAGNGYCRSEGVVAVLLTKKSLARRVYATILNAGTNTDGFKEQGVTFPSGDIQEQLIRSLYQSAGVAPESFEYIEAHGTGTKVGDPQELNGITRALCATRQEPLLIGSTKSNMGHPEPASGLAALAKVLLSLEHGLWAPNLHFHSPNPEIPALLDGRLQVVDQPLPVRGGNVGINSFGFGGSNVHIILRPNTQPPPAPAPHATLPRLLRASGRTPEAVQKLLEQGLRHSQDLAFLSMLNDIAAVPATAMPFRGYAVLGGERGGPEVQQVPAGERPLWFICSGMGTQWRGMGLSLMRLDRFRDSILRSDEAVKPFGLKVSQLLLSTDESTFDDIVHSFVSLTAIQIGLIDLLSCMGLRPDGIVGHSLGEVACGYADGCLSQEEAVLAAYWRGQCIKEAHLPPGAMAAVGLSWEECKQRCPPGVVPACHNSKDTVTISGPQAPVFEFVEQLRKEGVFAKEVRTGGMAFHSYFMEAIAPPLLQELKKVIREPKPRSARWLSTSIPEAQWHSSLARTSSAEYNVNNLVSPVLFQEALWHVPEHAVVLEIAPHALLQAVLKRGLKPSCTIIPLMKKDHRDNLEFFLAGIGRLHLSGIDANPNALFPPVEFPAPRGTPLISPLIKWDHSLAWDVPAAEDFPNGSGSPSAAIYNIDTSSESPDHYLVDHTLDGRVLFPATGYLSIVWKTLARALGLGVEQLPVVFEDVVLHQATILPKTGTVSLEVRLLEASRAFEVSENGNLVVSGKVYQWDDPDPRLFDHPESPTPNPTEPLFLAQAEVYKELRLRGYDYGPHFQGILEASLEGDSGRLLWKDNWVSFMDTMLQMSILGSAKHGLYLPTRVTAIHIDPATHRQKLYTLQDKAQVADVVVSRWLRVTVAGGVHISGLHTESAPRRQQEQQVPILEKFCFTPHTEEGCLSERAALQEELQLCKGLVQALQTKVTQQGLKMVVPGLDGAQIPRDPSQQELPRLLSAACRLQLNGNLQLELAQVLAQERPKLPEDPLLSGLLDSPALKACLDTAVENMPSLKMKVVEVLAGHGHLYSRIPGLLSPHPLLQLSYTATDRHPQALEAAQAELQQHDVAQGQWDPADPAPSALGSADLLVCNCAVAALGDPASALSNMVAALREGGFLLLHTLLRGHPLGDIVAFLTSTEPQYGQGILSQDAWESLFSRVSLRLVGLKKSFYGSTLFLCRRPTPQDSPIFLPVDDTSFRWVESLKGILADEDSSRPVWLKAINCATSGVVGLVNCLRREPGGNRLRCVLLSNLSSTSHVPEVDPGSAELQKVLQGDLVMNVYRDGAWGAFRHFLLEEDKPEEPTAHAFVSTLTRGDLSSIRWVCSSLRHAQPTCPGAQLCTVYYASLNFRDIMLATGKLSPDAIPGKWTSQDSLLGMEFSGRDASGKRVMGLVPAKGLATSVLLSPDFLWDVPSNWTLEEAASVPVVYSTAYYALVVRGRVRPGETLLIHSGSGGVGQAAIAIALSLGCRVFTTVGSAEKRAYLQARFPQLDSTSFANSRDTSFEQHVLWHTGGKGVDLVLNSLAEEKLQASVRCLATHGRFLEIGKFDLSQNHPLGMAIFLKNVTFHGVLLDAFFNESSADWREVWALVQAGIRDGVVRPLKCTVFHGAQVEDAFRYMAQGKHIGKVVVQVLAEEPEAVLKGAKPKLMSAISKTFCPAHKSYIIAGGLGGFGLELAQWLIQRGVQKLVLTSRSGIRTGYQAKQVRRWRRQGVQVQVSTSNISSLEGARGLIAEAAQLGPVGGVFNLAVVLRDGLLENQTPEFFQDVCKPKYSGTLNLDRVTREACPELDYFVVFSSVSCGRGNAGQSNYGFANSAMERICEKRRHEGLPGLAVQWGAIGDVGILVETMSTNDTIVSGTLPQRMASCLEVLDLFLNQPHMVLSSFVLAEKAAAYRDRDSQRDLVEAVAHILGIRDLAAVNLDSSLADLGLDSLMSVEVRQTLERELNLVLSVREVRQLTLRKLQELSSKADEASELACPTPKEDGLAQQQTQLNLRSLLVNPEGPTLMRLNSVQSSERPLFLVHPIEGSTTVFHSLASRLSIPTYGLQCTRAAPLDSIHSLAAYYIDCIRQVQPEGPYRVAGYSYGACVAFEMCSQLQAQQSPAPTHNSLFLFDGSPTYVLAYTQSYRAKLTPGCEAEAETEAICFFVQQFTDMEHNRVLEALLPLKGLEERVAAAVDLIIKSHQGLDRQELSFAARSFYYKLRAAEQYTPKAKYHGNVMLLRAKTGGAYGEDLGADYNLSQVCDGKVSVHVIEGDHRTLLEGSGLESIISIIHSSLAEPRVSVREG
ASSAY_NAME: LTEA_HepaRG_FASN: Life Technologies and Expression Analysis (LTEA) Assay for Fatty Acid Synthase (FASN) using HepaRG (AID 2283448)
EXPERIMENTAL_PARAMETERS: mRNA level, 48 h; actives raise or lower the signal
Active and inactive are the calls of the source. How the source made its calls: active means hit-call score of the fitted dose curve at least 0.9, where 1 is the maximum; inactive means score below 0.9.
Respond using exactly one of the listed classes: active, inactive

compound=O=NO assigned_label=inactive

Query block: Please share the test call associated with CC(COCC(C)OC(=O)c1ccccc1)OC(=O)c1ccccc1 (stereo not given) .
Result block: inactive

Query block: Please share the test call associated with CC(=O)OC1CC(C)OC(C)O1 (stereo not given) .
Result block: inactive

Query block: Please share the test call associated with `O=C(O)c1[nH]n(-c2ccc(S(=O)(=O)O)cc2)c(=O)c1N=Nc1ccc(S(=O)(=O)O)cc1` .
Result block: inactive

Query block: Please share the test call associated with `Cc1cc(Cc2ccc(N)c(C)c2)ccc1N` .
Result block: inactive

Query block: Please share the test call associated with `CO[C@@H]1COCC[C@@H]1N[C@@H]1CC[C@@](C(=O)N2CCc3ncc(C(F)(F)F)cc3C2)(C(C)C)C1` .
Result block: inactive

Query block: Please share the test call associated with `C/C=C/c1ccc(OC)cc1` .
Result block: inactive

Query block: Please share the test call associated with CCC(C)N(C)C(=O)c1cc2ccccc2c(-c2ccccc2Cl)n1 (stereo not given) .
Result block: inactive

Query block: Please share the test call associated with `O=C1O[C@H]([C@H](O)CO)C(O)=C1O` .
Result block: inactive

Query block: Please share the test call associated with `CC(C)(O)c1ccc(CNC(=O)c2cccnc2Oc2ccc(F)cc2)cc1` .
Result block: inactive

Ref: PubChem BioAssay (EPA / NIEHS)
